Tested on: PEG-3
measurement protocol: Peg3 promoter luciferase inhibitors, potency, dose response, cell-based, HeLa, CREF/GAPDH counter-screen panel (AID 624167)
applied conditions: HeLa PEG-Prom luciferase reporter, overnight, CREF/GAPDH counter-screens, run 1, dose range 1, individual replicate IC50 per panel
Each entry below lists one item and its recorded IC50 value.
Please state the figure in µM; there is no need to write the unit.

CCN(CCO)c1ccc(N=Nc2cc(C)[nH]n2)cc1 | 3
Oc1ccc(C23CCCC2C2(CCCC2)c2ccc(O)cc2O3)c(O)c1 (stereo not drawn) | 27.2
COC1CC(C)C(OC)c2cc(O)cc(c2O)NC(=O)C(C)=CC=CC(C)C(OC(N)=O)C(C)=CC(C)C1OC (stereo not drawn) | 22.2
Cc1cc(C)nc(NC(=O)c2c(F)c(F)c(F)c(C(=O)Nc3cc(C)cc(C)n3)c2F)c1 | 20.1
Cc1c(C)c2ccc(OCC(=O)Nc3ccccn3)c(C)c2oc1=O | 1.64

Incoming: Supply measured IC50 of Cc1cnc(NC(=O)C2CC(=O)N(c3cccc(Cl)c3)C2)s1 (stereo not drawn) in your reply.
Outgoing: 23.5

Incoming: Supply measured IC50 of Cc1ccccc1CNC(=O)C1CCCN(c2nnc(C)c3c(C)n(-c4ccccc4)nc23)C1 (stereo not drawn) in your reply.
Outgoing: 14.6

Incoming: Supply measured IC50 of `CNC(=O)c1ccsc1NC(=O)c1ccc(S(=O)(=O)N2CCc3ccccc32)cc1` in your reply.
Outgoing: 19.2

Incoming: Supply measured IC50 of O=C(c1ccco1)N1CCN(C(c2ccccc2Cl)c2nnnn2Cc2cccs2)CC1 (stereo not drawn) in your reply.
Outgoing: 3.28

Incoming: Supply measured IC50 of CC(C)CC(N)c1csc(NC(=O)Nc2ccccc2C(C)C)n1 (stereo not drawn) in your reply.
Outgoing: 30.1

Incoming: Supply measured IC50 of `CC(=O)CSc1ccc(-c2nc3cc(C)c(C)cc3[nH]2)cn1` in your reply.
Outgoing: 2.21

Incoming: Supply measured IC50 of `COc1ccc(-c2ccc3[nH]c4c(c3c2)CCN2C[C@@H]([C@H](C)O)[C@@H](N(C)C(=O)Nc3cc(Cl)cc(Cl)c3)C[C@@H]42)cc1` in your reply.
Outgoing: 43.8

Incoming: Supply measured IC50 of CC(=O)c1cccc(-c2ccnc3c2CC(C(=O)Nc2cccc(NS(C)(=O)=O)c2)O3)c1 (stereo not drawn) in your reply.
Outgoing: 6.56

Data origin: PubChem BioAssay AID624167
